- experimental-system: Phosphodiesterase isozyme 4 (Homo sapiens, UniProt Q86V67)
- Sequence (Q86V67 whole entry): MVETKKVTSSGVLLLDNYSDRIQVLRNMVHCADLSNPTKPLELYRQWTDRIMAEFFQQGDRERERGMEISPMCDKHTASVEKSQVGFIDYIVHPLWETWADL
reported-endpoint: IC50

O=C(Cc1c(Cl)c[n+]([O-])cc1Cl)c1ccc(OC(F)F)c2c1OC1(CCS(=O)(=O)CC1)O2 [ORISMILAST]: 1480 nM
CNc1nc(-c2cccc(NC(=O)c3ccc(C(=O)OC)cc3)c2)c2cc(OC)c(OC)cc2n1 [LOTAMILAST]: 2.8 nM
